Source: PubChem BioAssay (NCI)

- System: RXF 393 renal
- Protocol Notes: NCI tumour cell line growth inhibition, 48 h
Measured Endpoint: TGI

Answered cases to consult:
// query Give TGI for the following molecule: Oc1c(Cl)c(Cl)c(O)c(CCNc2nccs2)c1Cl
// result 20.3 µM

// query Give TGI for the following molecule: FC(F)(F)c1cc(-c2ncn(/C=C\c3nnco3)n2)cc(C(F)(F)F)c1
// result 0.11 µM

// query Give TGI for the following molecule: O=C(Cc1ccccc1)NN1C(=O)C(Cl)C1c1cccc([N+](=O)[O-])c1 (stereo unspecified)
// result 93 µM

// query Give TGI for the following molecule: CC1(C)OC2C(CO)OC(n3ccc(N)nc3=O)C2O1 (stereo unspecified)
// result > 100 µM

// query Give TGI for the following molecule: Cc1c(-c2nc(N)c(C#N)c(N)c2C#N)c(=O)oc2ccccc12
// result > 100 µM

// query Give TGI for the following molecule: CN1C(=O)CN2C(Cl)(Cl)C2(c2ccccc2)c2cc(Cl)ccc21 (stereo unspecified)
// result > 100 µM

// query Give TGI for the following molecule: CCCOc1ccc(/C=N/Nc2cc(C)nc3ccc(Cl)cc23)cc1
// result 2.94 µM

// query Give TGI for the following molecule: CN(C)CC1CCCCCCCCCCCCC(CN(C)C)C1=O (stereo unspecified)
// result 24 µM

// query Give TGI for the following molecule: Cc1c2ccccc2c(C2C3C(=O)N(c4cccc5ccccc45)C(=O)C3ON2Cc2ccc(CC(N)=O)cc2)c2ccccc12 (stereo unspecified)
// result 40 µM

// query Give TGI for the following molecule: CN1c2ccccc2C(=O)NC12CCNCC2
// result > 100 µM

---
// query Give TGI for the following molecule: Cn1c2cc([N+](=O)[O-])ccc2c(=O)c2c(O)cc3c(c21)C=CC(C)(C)O3
// result 74.5 µM

---

- Tested on: UACC-257 melanoma
- Protocol Notes: NCI tumour cell line growth inhibition, 48 h
Measured Endpoint: TGI

Answered cases to consult:
// query Fetch value of TGI on UACC-257 melanoma for Cc1[nH]c2nc3c(ncn3COCCO)c(=O)n2c1C(c1ccccc1)(c1ccccc1)c1ccccc1 .
// result 27.4 µM

// query Fetch value of TGI on UACC-257 melanoma for O=C1CCN2C(=N1)Sc1ccccc12 .
// result > 100 µM

// query Fetch value of TGI on UACC-257 melanoma for O=C(CCc1ccc(O)c(O)c1)NCCc1cc(O)c(O)c(O)c1 .
// result > 100 µM

// query Fetch value of TGI on UACC-257 melanoma for c1ccc2cc(CNCCCCNCCCNCc3ccc4ccccc4c3)ccc2c1 .
// result 3.55 µM

// query Fetch value of TGI on UACC-257 melanoma for O=C(Cc1ccc(Nc2ccnc(C(F)(F)F)c2)cc1)N/N=C/c1ccccc1O .
// result > 28.7 µM

Could I get TGI for every one of these entries?
1. CCOC(=O)C1=CNC(C(=O)OCC)C1c1cccn1-c1ccccc1 (stereo unspecified)
2. O=C1Oc2cc3c(c4cccc1c24)OCN(c1ccccc1)C3
3. O=P(CCOc1ccccc1OCCP(=O)(c1ccccc1)c1ccc2c(c1)OCCOCCOCCOCCO2)(c1ccccc1)c1ccc2c(c1)OCCOCCOCCOCCO2 (stereo unspecified)
4. Cc1cc(C)c(NC(=O)/C=C/c2ccccc2)c(C)c1
5. C=C1CC(C)(COc2cc(=O)oc3ccccc23)OC1=O (stereo unspecified)

// result
1: > 100 µM; 2: > 100 µM; 3: > 100 µM; 4: > 100 µM; 5: 6.1 µM

// query Fetch value of TGI on UACC-257 melanoma for Cn1c(NCC(CN2CCCC2)OC(=O)c2ccccc2)cc(=O)n(C)c1=O (stereo unspecified) .
// result > 100 µM

---

- Tested on: SK-OV-3 ovarian
- Protocol Notes: NCI tumour cell line growth inhibition, 48 h; in the data active means GI50 below about 0.43 µM; inactive means the rest
Your answer must be one of the following: active, inactive

// query Outcome? O=C(Cc1ccc(Nc2ccnc(C(F)(F)F)c2)cc1)N/N=C/c1ccccc1O
// result inactive

// query Outcome? CCCCN(CC)CCCCCCCCCCN1CCCc2cc(OC)ccc21
// result inactive

// query Outcome? O=C(/C=C/c1nnc2n(Cc3ccccc3)c(=O)c3c4c(sc3n12)CCCC4)c1ccccc1
// result inactive

---
// query Outcome? COc1ccc(C2CC(c3ccc4ccccc4c3)=NN2c2nc(O)c(C3=c4cc(OC)ccc4=NC3=O)s2)cc1 (configuration not stated)
// result active

// query Outcome? O=c1[nH]c2ccccc2n2cc3ccccc3c12
// result inactive

// query Outcome? Cc1cc(C(O)(c2ccc(Nc3ccccc3)cc2)c2ccc(Nc3ccc(S(=O)(=O)O)cc3)cc2)ccc1N (configuration not stated)
// result inactive

---

For each record, write down the corresponding TGI.
- Test system: NCI-H522 lung
- Protocol Notes: NCI tumour cell line growth inhibition, 48 h
One number for each entry, in µM.

Answered cases to consult:
// query Fetch value of TGI on NCI-H522 lung for Cc1ccc(S(=O)(=O)ON2C(=O)c3c(N)c(C#N)c(-c4ccccc4)c(-c4ccccc4)c3C2=O)cc1 .
// result 33.2

// query Fetch value of TGI on NCI-H522 lung for CC(=O)Oc1ccc(Nn2c3ccccc3c3ccccc32)c(C)c1 .
// result 46.3

// query Fetch value of TGI on NCI-H522 lung for O=C1/C(=C\c2ccccc2)CN(C(=O)c2ccccc2)C/C1=C\c1ccccc1 .
// result 5.27

// query Fetch value of TGI on NCI-H522 lung for O=C(Cc1ccccc1)NN1C(=O)C(Cl)C1c1cccc([N+](=O)[O-])c1 (stereo not given) .
// result 3.64

// query Fetch value of TGI on NCI-H522 lung for COC(=O)[C@]1(C)CCC[C@]2(C)[C@@H](CCC(=O)C(C)C)[C@]3(C=O)O[C@@H]3C[C@H]21 .
// result 46.6

Kindly consider the entry below.
// query Fetch value of TGI on NCI-H522 lung for Cc1ccc(SCC(CF)OC(C)n2cnc3c(Cl)nc(N)nc32)cc1 (stereo not given) .
// result 36.1

---

- System: NCI-H226 lung
- Protocol Notes: NCI tumour cell line growth inhibition, 48 h
For each record, write down the corresponding TGI.

Answered cases to consult:
// query Give TGI for the following compound: O=C(Oc1c(Br)cc(Br)cc1C(=O)Oc1ccccc1)C(=O)Oc1c(Br)cc(Br)cc1C(=O)Oc1ccccc1
// result 46 µM

// query Give TGI for the following compound: O=C(Cc1ccccc1)N/N=C(/c1nc2ccc([N+](=O)[O-])cc2[nH]c1=O)C(O)c1ccccc1Cl (stereo unspecified)
// result > 100 µM

Could I get TGI for every one of these entries?
1. CCOC(=O)c1cn(CC)c2ccc3ccsc3c2c1=O
2. Cc1ccc(NC(=O)/C(=N\NC(N)=S)C(C#N)c2ccccc2C)cc1C (stereo unspecified)
3. CCCCOC(=O)NC(Nc1ccc(S(=O)(=O)Nc2ncccn2)cc1)(C(F)(F)F)C(F)(F)F
4. CC(=O)O[C@H]1CC[C@@]2(C)C(=CC[C@@H]3[C@@H]2CC[C@](C)(c2nnc(C)o2)[C@H]3CC#N)C1

// result
1: > 100 µM; 2: > 100 µM; 3: > 100 µM; 4: > 100 µM

---

- System: SN12C renal
- Protocol Notes: NCI tumour cell line growth inhibition, 48 h
Measured Endpoint: TGI

// query Give TGI for the following compound: N#Cc1ccc(C(C2C(=O)NC(=O)NC2=O)C2C(=O)NC(=O)NC2=O)cc1
// result > 100 µM

// query Give TGI for the following compound: N#Cc1c(-c2ccccc2)cc(-c2cccs2)c(C#N)c1N
// result > 100 µM

// query Give TGI for the following compound: O=C1CCSc2nc(-c3ccc4c(c3)OCO4)nn21
// result > 10 µM

// query Give TGI for the following compound: CCCCCCc1cc2cc(-c3csc(/C=C/c4ccccc4)n3)c(=O)oc2cc1O
// result 4.43 µM

// query Give TGI for the following compound: CC1CCC2CC1NC(=O)CCOCCC(=O)NC2(C)C (configuration not stated)
// result > 100 µM

Could I get TGI for every one of these entries?
1. C=C1CC(C)(COc2cc(=O)oc3ccccc23)OC1=O (configuration not stated)
2. O=c1[nH]c(F)nc2c1ncn2C1OC(CO)C(O)C1O (configuration not stated)
3. FC(F)(F)c1cc(-c2ncn(/C=C\c3nnco3)n2)cc(C(F)(F)F)c1
4. O=C1C(=C([O-])c2ccccc2)C(=O)c2ccccc21.O=C1C(=C([O-])c2ccccc2)C(=O)c2ccccc21.[Co+2]
5. COc1ccccc1N1C(=O)CSC1c1cc(OC)c(OC)c(OC)c1 (configuration not stated)

// result
["21.4 µM", "> 100 µM", "> 100 µM", "> 100 µM", "> 100 µM"]

Could I get TGI for every one of these entries?
1. O=C1Oc2cc3c(c4cccc1c24)OCN(c1ccccc1)C3
2. CCC(C)(C)[C@H](NC(=O)[C@H]1CCCCN1C)C(=O)N(C)[C@H](C[C@@H](OC(C)=O)c1nc(C(=O)N[C@@H](Cc2ccccc2)C[C@H](C)C(=O)O)cs1)C(C)C
3. O=Cc1ccc(-c2ccc(-c3ccc(C=O)o3)[se]2)o1
4. CC1(C)SCc2nc3ccccc3n21
5. CCCCCC#COC1CC(C)CC[C@@H]1C(C)C (some centres not stated)
6. C=CC(=O)NCNC(=O)C=C
7. c1ccc2cc(CNCCCCNCCCNCc3ccc4ccccc4c3)ccc2c1
8. O=C1CCCC2=C1CC1=C(CCCC1=O)N2c1ccc([N+](=O)[O-])cc1

// result
1: > 100 µM; 2: > 16.7 µM; 3: > 100 µM; 4: > 100 µM; 5: > 100 µM; 6: > 100 µM; 7: 0.879 µM; 8: > 100 µM

Could I get TGI for every one of these entries?
1. Cc1ccc(S(=O)(=O)ON2C(=O)c3c(N)c(C#N)c(-c4ccccc4)c(-c4ccccc4)c3C2=O)cc1
2. CC(=O)N=c1ccc2nc(N)nn(O)c-2c1

// result
1: 40 µM; 2: > 100 µM

Could I get TGI for every one of these entries?
1. CCCCCCCc1cscc1-c1cscc1Br
2. CCCCN(CC)CCCCCCCCCCN1CCCc2cc(OC)ccc21

// result
1: > 100 µM; 2: 15.3 µM
